FYI, the data here is from ChEMBL document CHEMBL3826955.

Tested on: Histone-lysine N-methyltransferase SETD7 (Homo sapiens, UniProt Q8WTS6)
Sequence (Q8WTS6 whole entry): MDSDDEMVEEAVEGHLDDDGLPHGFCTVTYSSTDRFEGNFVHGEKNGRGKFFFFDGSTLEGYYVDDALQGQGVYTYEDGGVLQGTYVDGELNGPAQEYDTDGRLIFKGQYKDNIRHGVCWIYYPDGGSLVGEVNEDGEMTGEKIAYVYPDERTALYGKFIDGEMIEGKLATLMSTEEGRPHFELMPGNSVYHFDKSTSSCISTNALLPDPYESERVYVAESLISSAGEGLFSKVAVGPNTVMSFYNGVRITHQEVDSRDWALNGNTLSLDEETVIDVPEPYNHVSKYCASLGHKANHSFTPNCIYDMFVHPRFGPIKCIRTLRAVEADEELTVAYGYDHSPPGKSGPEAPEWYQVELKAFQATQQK
Test description: Inhibition of recombinant SET7/9 (unknown origin) using biotinylated histone H3-derived peptide/SAM as substrate after 60 mins by AlphaLISA assay
Readout kind: IC50

| Molecule | Readout kind | Measured value |
| --- | --- | --- |
| CN1CCN(C2c3ccccc3C=Cc3ccccc32)CC1 | IC50 | > 100 µM |
| CN1CCC(=C2c3ccccc3C=Cc3ccccc32)CC1 | IC50 | 3.4 µM |
| CN1CCC(OC2c3ccccc3C=Cc3ccccc32)CC1 | IC50 | > 100 µM |
| CN1CCN(C2c3ccccc3Oc3ccccc32)CC1 | IC50 | > 100 µM |
| CN1CCC(OC2c3ccccc3Oc3ccccc32)CC1 | IC50 | > 100 µM |

### Prompt Look up IC50 with Histone-lysine N-methyltransferase SETD7 (Homo sapiens, UniProt Q8WTS6) for this molecule: CN1CCN(C2c3ccccc3Sc3ccccc32)CC1
### Response > 100 µM

### Prompt One more molecule: CN1CCC(=C2c3ccccc3Sc3ccccc32)CC1
### Response 4.3 µM

### Prompt One more molecule: CN1CCC(OC2c3ccccc3Sc3ccccc32)CC1
### Response > 100 µM
